Reported pIC50 values are given for each entry in this list.
Target: mGlyT-1b (Mus musculus, UniProt P28571)
Sequence (P28571 1-651 isoform P28571-2): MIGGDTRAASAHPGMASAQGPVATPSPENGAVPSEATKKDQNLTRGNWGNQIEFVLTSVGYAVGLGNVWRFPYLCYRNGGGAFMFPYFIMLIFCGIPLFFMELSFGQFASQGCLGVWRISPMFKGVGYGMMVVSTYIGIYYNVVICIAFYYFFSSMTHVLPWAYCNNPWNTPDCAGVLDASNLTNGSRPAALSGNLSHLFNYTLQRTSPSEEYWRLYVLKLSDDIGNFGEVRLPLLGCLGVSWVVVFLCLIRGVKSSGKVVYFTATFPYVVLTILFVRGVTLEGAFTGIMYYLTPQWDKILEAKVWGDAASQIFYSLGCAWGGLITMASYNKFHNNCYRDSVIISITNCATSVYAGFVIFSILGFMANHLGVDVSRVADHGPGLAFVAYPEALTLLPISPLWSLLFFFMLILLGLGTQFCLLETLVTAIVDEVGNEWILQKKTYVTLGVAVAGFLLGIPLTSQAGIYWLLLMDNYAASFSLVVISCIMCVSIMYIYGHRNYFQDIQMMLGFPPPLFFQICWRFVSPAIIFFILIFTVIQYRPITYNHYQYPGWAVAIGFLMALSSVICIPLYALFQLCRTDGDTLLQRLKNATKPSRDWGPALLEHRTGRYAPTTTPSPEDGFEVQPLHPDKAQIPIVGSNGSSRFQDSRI
Assay: Glycine Uptake Inhibition Assay (mGlyT-1b)
Conditions: [3H]-glycine uptake inhibition at GlyT-1, Flp-in-CHO cells transfected with mGlyT-1b cDNA
To interpret pIC50, take it as minus log10 of a concentration measured in moles per litre.

Q. # lookup: pIC50 of CNS(=O)(=O)c1ccc(OCC(C)C)c(C(=O)N2CCN(c3ccc(C(C)=O)cc3F)CC2)c1
A. 7.35

Kindly review the next compound as well.
Q. What value of pIC50 has been recorded for this entry: CC(Oc1ccc(S(C)(=O)=O)cc1C(=O)N1CCN(c2ncc(C(F)(F)F)cc2F)CC1)C(F)(F)F (racemic)
A. 7.33

###

Target: mGlyT-1b (Mus musculus)
Assay: Glycine Uptake Inhibition Assay (mGlyT-1b)
Conditions: [3H]-glycine uptake inhibition at GlyT-1, Flp-in-CHO cells transfected with mGlyT-1b cDNA
measurement.name: pIC50
Remember the convention: pIC50 equals -log10 of concentration in molar.

Worked cases, answers included:
Q. # lookup: pIC50 of CC(C)Oc1ccc(S(C)(=O)=O)cc1C(=O)N1CCN(c2ccc(C(F)(F)F)cc2F)CC1
A. 7.92

Q. What value of measured pIC50 is listed for CS(=O)(=O)c1ccc(OC2CCCC2)c(C(=O)N2CCN(c3c(F)cc(C#N)cc3F)CC2)c1 ?
A. 7.80

Q. Item under review: CCC(C)Oc1ccc(S(C)(=O)=O)cc1C(=O)N1CCN(c2ccc(C#N)c(F)c2)CC1 (racemic) . Reported pIC50?
A. 7.55

Others:
Q. What does the data say about its pIC50? Entry: CS(=O)(=O)c1ccc(OC(CF)CF)c(C(=O)N2CCN(c3ccc(C(F)(F)F)cc3C#N)CC2)c1
A. 7.33

Q. pIC50 lookup needed for CS(=O)(=O)c1ccc(OCCC(F)(F)F)c(C(=O)N2CCN(c3ccc(C#N)cc3F)CC2)c1 , thanks.
A. 7.62

###

Molecular target: mGlyT-1b (Mus musculus, UniProt P28571)
Test: Glycine Uptake Inhibition Assay (mGlyT-1b)
Settings: [3H]-glycine uptake inhibition at GlyT-1, Flp-in-CHO cells transfected with mGlyT-1b cDNA
measurement.name: IC50 (µM)
Give the number; µM is assumed, so skip it.

Below, each entry is followed by its recorded IC50 result.
Q. Consider the compound shown here: CS(=O)(=O)c1ccc(OC2CCCC2)c(C(=O)N2CCN(c3ncc(C(F)(F)F)cc3Cl)CC2)c1 [compound 413] What is its recorded IC50?
A. 0.03

Q. Param item = CC(C)(Oc1ccc(S(C)(=O)=O)cc1C(=O)N1CCN(c2ncc(C(F)(F)F)cc2F)CC1)C(F)(F)F [compound 637] ; retrieve measured IC50.
A. 0.047

Q. Which value of IC50 has been reported for CS(=O)(=O)c1ccc(OC2CCC2)c(C(=O)N2CCN(c3ccc(C(F)(F)F)c(F)c3)CC2)c1 [compound 317] in the records?
A. 0.041

Next:
Q. Bench note: what IC50 did CC(C)Oc1ccc(S(C)(=O)=O)cc1C(=O)N1CCN(c2ccc(C#N)c(F)c2F)CC1 [compound 109] show?
A. 0.021

Q. Suppose we examine the compound CCC(C)Oc1ccc([N+](=O)[O-])cc1C(=O)N1CCN(c2ccc(C(F)(F)F)cc2)CC1 (racemic) [Example 78] ; what IC50 value has been reported?
A. 0.012

Q. Which IC50 value belongs to CC(C)(C)COc1ccc(S(C)(=O)=O)cc1C(=O)N1CCN(c2ccc(C(F)(F)F)cc2F)CC1 [compound 294] ?
A. 0.037

Q. GET /values?readout=IC50&item= CS(=O)(=O)c1ccc(OC2CCCC2)c(C(=O)N2CCN(c3ccc(C(F)(F)F)cc3C#N)CC2)c1 [compound 373]
A. 0.035

Q. Which IC50 value is on record for CCC(C)Oc1ccc(S(C)(=O)=O)cc1C(=O)N1CCN(c2ccc(C#N)cc2F)CC1 (racemic) [compound 321] ?
A. 0.018

Q. Any idea what its IC50 is? The compound is CS(=O)(=O)c1ccc(OC2CCCCC2)c(C(=O)N2CCN(c3ccc(C#N)c(F)c3)CC2)c1 [compound 284]
A. 0.01

###

Recorded IC50 for the following compounds
Target: mGlyT-1b (Mus musculus, UniProt P28571)
Construct: host or cells: Flp-in-CHO cells
Assay: Glycine Uptake Inhibition Assay (mGlyT-1b)
Type: cell-based
Conditions: [3H]-glycine uptake inhibition at GlyT-1, Flp-in-CHO cells transfected with mGlyT-1b cDNA
Please answer using the number first and the unit second.

Please review the following examples before continuing.
Q. What IC50 appears in the records for this compound with mGlyT-1b (Mus musculus, UniProt P28571)? CS(=O)(=O)c1ccc(OCC(F)(F)C(F)F)c(C(=O)N2CCN(c3ccc(C#N)c(F)c3)CC2)c1
A. 41 nM

Q. Request: IC50, test system mGlyT-1b (Mus musculus, UniProt P28571), entry CCS(=O)(=O)c1ccc(N2CCN(C(=O)c3cc(S(C)(=O)=O)ccc3OC3CCCC3)CC2)c(F)c1
A. 43 nM

Next:
Q. Record lookup: for mGlyT-1b (Mus musculus, UniProt P28571), what IC50 belongs to CC(C)(C)COc1ccc(S(C)(=O)=O)cc1C(=O)N1CCN(c2ccc(C(F)(F)F)cc2)CC1 ?
A. 34 nM

###

Molecular target: mGlyT-1b (Mus musculus)
Assay: Glycine Uptake Inhibition Assay (mGlyT-1b)
Settings: [3H]-glycine uptake inhibition at GlyT-1, Flp-in-CHO cells transfected with mGlyT-1b cDNA
The entries below are paired with their reported pIC50.
pIC50 is defined as minus the log10 of a concentration measured in mol/L.

Q. Suppose we examine the compound COCCS(=O)(=O)c1ccc(N2CCN(C(=O)c3cc(S(C)(=O)=O)ccc3OC(C)C)CC2)c(F)c1 ; what pIC50 value has been reported?
A. 7.42

Q. Any idea what pIC50 was measured for CS(=O)(=O)c1ccc(OCC2CC2)c(C(=O)N2CCN(c3cc(F)c(C#N)c(F)c3)CC2)c1 ?
A. 7.51

Q. Given CC(C)COc1ccc(S(C)(=O)=O)cc1C(=O)N1CCN(c2ccc(S(C)(=O)=O)c(F)c2)CC1 , state its recorded pIC50.
A. 7.39

Please examine the following record next.
Q. Look up pIC50: CC(C)Oc1ccc(S(C)(=O)=O)cc1C(=O)N1CCN(c2ccc(C(F)F)cc2F)CC1
A. 7.64

###

Parameter: IC50. Scope: all listed entries.
Target: mGlyT-1b (Mus musculus)
Experiment: Glycine Uptake Inhibition Assay (mGlyT-1b)
Settings: [3H]-glycine uptake inhibition at GlyT-1, Flp-in-CHO cells transfected with mGlyT-1b cDNA
// units = nM; emit number, no label

Q. Which value of IC50 has been reported for CS(=O)(=O)c1ccc(OCC(F)(F)F)c(C(=O)N2CCN(c3ccc(C(F)(F)F)cc3F)CC2)c1 in the records?
A. 12

Q. Using the record for CC(=O)c1ccc(N2CCN(C(=O)c3cc(S(C)(=O)=O)ccc3OCCC(F)(F)F)CC2)c(F)c1 , report its IC50.
A. 24

Q. Need IC50, item CS(=O)(=O)c1ccc(OC2CCCCC2)c(C(=O)N2CCN(c3ccc(C(F)(F)F)cc3)CC2)c1
A. 42

Q. Entry under review: CNS(=O)(=O)c1ccc(OC(C)C(F)(F)F)c(C(=O)N2CCN(c3ccc(C(F)(F)F)cc3)CC2)c1 (racemic) . Reported IC50?
A. 19

Q. May I ask what IC50 has been recorded for CS(=O)(=O)c1ccc(OCC2CCC2)c(C(=O)N2CCN(c3ccc(C(F)(F)F)cc3)CC2)c1 ?
A. 24

Q. Query (molecule): CNS(=O)(=O)c1ccc(OCC(F)(F)F)c(C(=O)N2CCN(c3ccc(C(F)(F)F)cc3)CC2)c1 ; field requested: IC50
A. 30

---
Q. # IC50 lookup, item CS(=O)(=O)c1ccc(OC2CCC2)c(C(=O)N2CCN(c3ccc(S(=O)(=O)C4CC4)cc3F)CC2)c1
A. 39

Q. Endpoint output: IC50 of CC(Oc1ccc(S(C)(=O)=O)cc1C(=O)N1CCN(c2ccc(C(F)(F)F)cc2)CC1)C(F)(F)F (centres unmarked) [compound 301] . Value?
A. 30
